- Tested on: U937 AML cells
- measurement.notes: CCK-8 anti-proliferation, U937
endpoint: antiproliferative activity against U937 cells

molecular.string	experimental.target	observed
Cc1cnc(Nc2ccc(OCCN3CCCC3)cc2)nc1Nc1cccc(S(=O)(=O)NC(C)(C)C)c1	U937 AML cells	micromolar IC50 values
CCS(=O)(=O)N1CC(CC#N)(n2cc(-c3ncnc4[nH]ccc34)cn2)C1	U937 AML cells	micromolar IC50 values

====

Assignment: determine reported IC50 for the given compounds.
- Test system: MV4-11
- measurement.notes: CCK-8 anti-proliferation, MV4-11
- conditions: read-out: IC50 Cell line MV4-11; CCK-8, 72 h; mean ± SD

Known IC50 results, listed for orientation:
molecular.string	observed
CC[C@@H]1CN(C(=O)NCC(F)(F)F)C[C@@H]1c1cnc2cnc3[nH]ccc3n12	> 10 µM
C=CC(=O)N1C[C@H](Nc2ncnc3[nH]ccc23)CC[C@@H]1C	> 10 µM
NC(=O)c1cnc2[nH]ccc2c1N[C@@H]1[C@@H]2CC3C[C@H]1C[C@@](O)(C3)C2	9.19 µM
O=C(Nc1nc2cccc(-c3ccc(CN4CCS(=O)(=O)CC4)cc3)n2n1)C1CC1	> 10 µM

# per-item lookup of IC50; items listed below
1. N#CC[C@H](C1CCCC1)n1cc(-c2ncnc3[nH]ccc23)cn1
2. Cc1cnc(Nc2ccc(OCCN3CCCC3)cc2)nc1Nc1cccc(S(=O)(=O)NC(C)(C)C)c1

Output:
["> 10 µM", "> 10 µM"]

====

- Tested on: HL-60
- measurement.notes: CCK-8 anti-proliferation, HL-60
- conditions: read-out: IC50 Cell line HL-60; CCK-8, 72 h; mean ± SD
endpoint: IC50

// below: answered compounds
compound	endpoint	observed
C=CC(=O)N1C[C@H](Nc2ncnc3[nH]ccc23)CC[C@@H]1C [PF-06651600, ritlecitinib]	IC50	> 10 µM
N#CC[C@H](C1CCCC1)n1cc(-c2ncnc3[nH]ccc23)cn1 [Ruxolitinib]	IC50	> 10 µM
Cc1cnc(Nc2ccc(OCCN3CCCC3)cc2)nc1Nc1cccc(S(=O)(=O)NC(C)(C)C)c1 [Fedratinib]	IC50	2.44 µM
O=C(Nc1nc2cccc(-c3ccc(CN4CCS(=O)(=O)CC4)cc3)n2n1)C1CC1 [Filgotinib]	IC50	> 10 µM
NC(=O)c1cnc2[nH]ccc2c1N[C@@H]1[C@@H]2CC3C[C@H]1C[C@@](O)(C3)C2 [Peficitinib]	IC50	4.93 µM

Now consider the entry below.
Input: Give recorded IC50 with HL-60 for the following compound: CC[C@@H]1CN(C(=O)NCC(F)(F)F)C[C@@H]1c1cnc2cnc3[nH]ccc3n12 [Upadacitinib]
Output: > 10 µM

The measured values listed here are drawn from paper PMC8802890.
